The values you see were collected from paper PMC7551609.

tested on: ZIKV Paraiba/2015; assay: Viral inhibition assay, co-treatment, Vero cells; type: cell-based, Zika virus; details: Vero cells, ZIKV Paraiba/2015, co-treatment
Counter-ions that a name gives are not always drawn.
Measurement label: Co-treatment MIC (maximum effective concentration)

COC1=CC(c2cc3ccccc3[nH]2)=N/C1=C\c1[nH]c(C)cc1C [Obatoclax, Obatoclax mesylate]
< 3.70 µM
COc1c(C)c2c(c(O)c1C/C=C(\C)CCC(=O)O)C(=O)OC2
< 11.10 µM

We now examine a further molecule.
Enquiry: Look up Co-treatment MIC (maximum effective concentration) for this molecule: `O=c1cnn([C@@H]2O[C@H](CO)[C@@H](O)[C@H]2O)c(=O)[nH]1`
Return: < 100.00 µM

* * *

tested on: ZIKV Paraiba/2015; assay: Viral inhibition assay, co-treatment, Vero cells; assay type: cell-based, Zika virus; settings: Vero cells, ZIKV Paraiba/2015, co-treatment
Counter-ions that a name gives are not always drawn.
Measured Co-treatment MIC (maximum effective concentration) accompanies every entry in the list below.

Solved cases below.
NCC(=O)Nc1ccc(-n2nc(C(F)(F)F)cc2-c2ccc3c(ccc4ccccc43)c2)cc1
> 100.00 µM
NC(=O)c1[nH]nc([C@@H]2O[C@H](CO)[C@@H](O)[C@H]2O)c1O
> 100.00 µM
CCCCCC[C@H]1C(=O)O[C@H](C)[C@H](NC(=O)c2cccc(NC=O)c2O)C(=O)O[C@@H](C)[C@@H]1OC(=O)CC(C)C [Antimycin A]
> 100.00 µM
CC[C@H](CC#N)OC(=O)N[C@@H](C)c1cccc(NC(=O)Nc2ccc(-c3cnco3)c(OC)c2)c1
> 100.00 µM
COc1c(C)c2c(c(O)c1C/C=C(\C)CCC(=O)OCCN1CCOCC1)C(=O)OC2 [Mycophenolate mofetil]
> 100.00 µM

Enquiry: For the record `O=C(O)C1=CC(=C(c2ccc(O)c(C(=O)O)c2)c2ccc(O)c(C(=O)O)c2)C=CC1=O` , what value of Co-treatment MIC (maximum effective concentration) is listed for ZIKV Paraiba/2015?
Return: < 33.30 µM

Enquiry: For the record Cc1c(-c2ccc(-c3ccccc3F)cc2)nc2ccc(F)cc2c1C(=O)O [Brequinar, Brequinar sodium salt hydrate] , what value of Co-treatment MIC (maximum effective concentration) is listed for ZIKV Paraiba/2015?
Return: < 33.30 µM

* * *

tested on: ZIKV MR-766 strain; assay: Viral inhibition assay, post-treatment, old World strain, Vero cells; type: cell-based, Zika virus; conditions: Zika virus; old World ZIKV MR-766, Vero cells, post-treatment
Where a name gives a salt, the structure may show the parent alone.
Measurement label: pEC50
To interpret pEC50, take it as minus log10 of a concentration measured in moles per litre.

NCC(=O)Nc1ccc(-n2nc(C(F)(F)F)cc2-c2ccc3c(ccc4ccccc43)c2)cc1 [OSU-03012]
6.09
O=C(O)C1=CC(=C(c2ccc(O)c(C(=O)O)c2)c2ccc(O)c(C(=O)O)c2)C=CC1=O [ATA, Aurintricarboxylic acid]
5.09
NC(=O)c1[nH]nc([C@@H]2O[C@H](CO)[C@@H](O)[C@H]2O)c1O [Pyrazofurin]
6.05

We now examine a further compound.
Enquiry: Look up pEC50 for this compound: Cc1c(-c2ccc(-c3ccccc3F)cc2)nc2ccc(F)cc2c1C(=O)O [Brequinar, Brequinar sodium salt hydrate]
Return: 7.30
